tested on: E. coli DH5α; assay: Antibacterial activity: MIC and growth curve against E. coli DH5α in 96-well plate; assay type: cell-based; details: minimal inhibitory concentration against E. coli DH5α; 96-well plate, 5×10^5 CFU/mL, 37° C., judged after 8 h
measured_quantity: MIC

[
  {
    "substance": "PRT1296 (GCEPCHKKVCAHGTCQPSSQAGFTCECQEGWMGPLCD; listed as Homo sapiens)",
    "measured_quantity": "MIC",
    "assay_result": "50 µg/mL"
  },
  {
    "substance": "PRT131 (AGHCSTYGHLCRNGGRCREKRRGVTCDCAFSAYDGPFCS; listed as Homo sapiens)",
    "measured_quantity": "MIC",
    "assay_result": "50 µg/mL"
  },
  {
    "substance": "PRT634 (DIDECQHRHLCAHGQCRNTEGSFQCVCDQGYRASGLGDHCE; listed as Homo sapiens)",
    "measured_quantity": "MIC",
    "assay_result": "12.5 µg/mL"
  },
  {
    "substance": "PRT638 (DVNECELLSGVCGEAFCENVEGSFLCVCADENQEYSPMTGQCR; listed as Homo sapiens)",
    "measured_quantity": "MIC",
    "assay_result": "25 µg/mL"
  },
  {
    "substance": "PRT767 (AIDLCAEGTHGCEHHCVNSPGSYFCHCQVGFVLQQDQ; listed as Homo sapiens)",
    "measured_quantity": "MIC",
    "assay_result": "25 µg/mL"
  },
  {
    "substance": "PRT674 (DVDECQDPAACRPGRCVNLPGSYRCECRPPWVPGPSGRDCQ; listed as Homo sapiens)",
    "measured_quantity": "MIC",
    "assay_result": "12.5 µg/mL"
  },
  {
    "substance": "PRT464 (DLDECRVRNLCQHACRNTEGSYQCLCPAGYRLLPSGKNCQ; listed as Homo sapiens)",
    "measured_quantity": "MIC",
    "assay_result": "12.5 µg/mL"
  },
  {
    "substance": "PRT1048 (YGKRCVPCKCANHSFCHPSNGTCYCLAGWTGPDCS; listed as Homo sapiens)",
    "measured_quantity": "MIC",
    "assay_result": "12.5 µg/mL"
  }
]

====

Reported MIC values for a set of substances
test system: E. coli DH5α; assay: Antibacterial activity: MIC and growth curve against E. coli DH5α in 96-well plate; type: cell-based; settings: minimal inhibitory concentration against E. coli DH5α; 96-well plate, 5×10^5 CFU/mL, 37° C., judged after 8 h
measured_quantity: MIC (µg/mL)

[
  {
    "substance": "PRT642 (DVNECDELNNRMSLCKNAKCINTDGSYKCLCLPGYVPSDKPNYCT; listed as Homo sapiens)",
    "unit_of_measure": "µg/mL",
    "assay_result": 12.5
  },
  {
    "substance": "PRT93 (PLLHCAPGFCFPGVACIQTESGARCGPCPAGFTGNGSHCT; listed as Homo sapiens)",
    "unit_of_measure": "µg/mL",
    "assay_result": 50
  },
  {
    "substance": "PRT496 (CSCNNHSDTCDPNTGKCLNCGDNTAGDHCDVCTSGYYGKVTGSASDCAL; listed as Homo sapiens)",
    "unit_of_measure": "µg/mL",
    "assay_result": 12.5
  },
  {
    "substance": "PRT754 (IQDLCAMEDHNCEQLCVNVPGSFVCQCYSGYALAEDGKRCV; listed as Homo sapiens)",
    "unit_of_measure": "µg/mL",
    "assay_result": 25
  },
  {
    "substance": "PRT1240 (WGPDCRESCPCHPHGQCEPATGACQCQADRWGARCE; listed as Homo sapiens)",
    "unit_of_measure": "µg/mL",
    "assay_result": 12.5
  },
  {
    "substance": "PRT869 (CKCNLHATVCVYDNSKLTCECEHNTTGPDCGKCKKNYQGRPWSPGSYLPIPKGTANTCIP; listed as Homo sapiens)",
    "unit_of_measure": "µg/mL",
    "assay_result": 12.5
  },
  {
    "substance": "PRT1241 (WSSTCRRPCQCNTAAARCEQATGACVCKPGWWGRRCS; listed as Homo sapiens)",
    "unit_of_measure": "µg/mL",
    "assay_result": 50
  },
  {
    "substance": "PRT47 (CTCSGHANICHLHTGKCFCTTKGIKGDQCQLCDSENRYVGNPLRGTCYY; listed as Homo sapiens)",
    "unit_of_measure": "µg/mL",
    "assay_result": 12.5
  },
  {
    "substance": "PRT1167 (NINDCESNPCRNGGTCIDGVNSYKCICSDGWEGAYCE; listed as Homo sapiens)",
    "unit_of_measure": "µg/mL",
    "assay_result": 50
  },
  {
    "substance": "PRT17 (AGHPCTRASGHPCLNGASCVPREAAYVCLCPGGFSGPHCE; listed as Homo sapiens)",
    "unit_of_measure": "µg/mL",
    "assay_result": 12.5
  },
  {
    "substance": "PRT1111 (SEDMCSPDPCFNGGTCLVTWNDFHCTCPANFTGPTCA; listed as Homo sapiens)",
    "unit_of_measure": "µg/mL",
    "assay_result": 12.5
  },
  {
    "substance": "PRT659 (DADECVIFGPGLCPNGRCLNTVPGYVCLCNPGFHYDASHKKCE; listed as Homo sapiens)",
    "unit_of_measure": "µg/mL",
    "assay_result": 25
  },
  {
    "substance": "PRT143 (PRNPCRMSCQNHGRLNISTCHCHCPPGYTGRYCQ; listed as Homo sapiens)",
    "unit_of_measure": "µg/mL",
    "assay_result": 12.5
  },
  {
    "substance": "PRT544 (CDCGARLCDELTGQCICPPRTIPPDCLLCQPQTFGCHPLVGCEE; listed as Homo sapiens)",
    "unit_of_measure": "µg/mL",
    "assay_result": 12.5
  },
  {
    "substance": "PRT259 (GGCHTDALCSYVGPGQSRCTCKLGFAGDGYQC; listed as Homo sapiens)",
    "unit_of_measure": "µg/mL",
    "assay_result": 12.5
  },
  {
    "substance": "PRT190 (ECPLNYCRNGGTCVVEKNGPMCRCRQGWKGNRC; listed as Homo sapiens)",
    "unit_of_measure": "µg/mL",
    "assay_result": 12.5
  },
  {
    "substance": "PRT1373 (STRSCPGGCRGRGQCLDGRCVCEDGYSGEDC; listed as Homo sapiens)",
    "unit_of_measure": "µg/mL",
    "assay_result": 25
  },
  {
    "substance": "PRT1390 (EEDCLDPMCSNHGICVKGECHCSTGWGGVNCET; listed as Homo sapiens)",
    "unit_of_measure": "µg/mL",
    "assay_result": 12.5
  },
  {
    "substance": "PRT58 (PCALGEGPACAHCAPDNSTRCGSCNPGYVLAQGLCR; listed as Homo sapiens)",
    "unit_of_measure": "µg/mL",
    "assay_result": 12.5
  },
  {
    "substance": "PRT542 (CRCDIGGALGQSCEPRTGVCRC; listed as Homo sapiens)",
    "unit_of_measure": "µg/mL",
    "assay_result": 25
  },
  {
    "substance": "PRT462 (DVDECLEGLDDCHYNQLCENTPGGHRCSCPRGYRMQGPS; listed as Homo sapiens)",
    "unit_of_measure": "µg/mL",
    "assay_result": 12.5
  },
  {
    "substance": "PRT187 (KVDRCTSNPCANGGQCLNRGPSRMCRCRPGFTGTYCE; listed as Homo sapiens)",
    "unit_of_measure": "µg/mL",
    "assay_result": 25
  },
  {
    "substance": "PRT705 (LDDSCKLTCENGGRCILNEKGDLRCHCWPSYSGE; listed as Homo sapiens)",
    "unit_of_measure": "µg/mL",
    "assay_result": 25
  },
  {
    "substance": "PRT1403 (SVVECPRNCHGNGECVSGTCHCFPGFLGPDCS; listed as Homo sapiens)",
    "unit_of_measure": "µg/mL",
    "assay_result": 50
  },
  {
    "substance": "PRT977 (EVDPCLAQPCQHGGTCRGYMGGYMCECLPGYNGDNCE; listed as Homo sapiens)",
    "unit_of_measure": "µg/mL",
    "assay_result": 12.5
  },
  {
    "substance": "PRT91 (DTNECIQFPFVCPRDKPVCVNTYGSYRCRTNKKCSRGYEPNEDGTAC; listed as Homo sapiens)",
    "unit_of_measure": "µg/mL",
    "assay_result": 12.5
  },
  {
    "substance": "PRT899 (NINECASNPCLNQGTCIDDVAGYKCNCLLPYTGATCE; listed as Homo sapiens)",
    "unit_of_measure": "µg/mL",
    "assay_result": 12.5
  },
  {
    "substance": "PRT826 (FGVGCEHTCSCRNGGLCHASNGSCSCGLGWTGRHCE; listed as Homo sapiens)",
    "unit_of_measure": "µg/mL",
    "assay_result": 12.5
  },
  {
    "substance": "PRT63 (GCNFNNGGCHQDCFEGGDGSFLCGCRPGFRLLDDLVTCA; listed as Homo sapiens)",
    "unit_of_measure": "µg/mL",
    "assay_result": 12.5
  },
  {
    "substance": "PRT788 (WGPHCTSRCQCKNGALCNPITGACHCAAGFRGWRCE; listed as Homo sapiens)",
    "unit_of_measure": "µg/mL",
    "assay_result": 50
  },
  {
    "substance": "PRT793 (YGEACQQICSCQNGADCDSVTGKCTCAPGFKGIDCS; listed as Homo sapiens)",
    "unit_of_measure": "µg/mL",
    "assay_result": 25
  },
  {
    "substance": "PRT685 (DVNECLEGDFCFPHGECLNTDGSFACTCAPGYRPGPRGASCL; listed as Homo sapiens)",
    "unit_of_measure": "µg/mL",
    "assay_result": 50
  }
]

Origin of values: patent US9833497B2
